These data points were gathered from patent US7202265B2.

Measured on: FLK-1 receptor (Mus musculus)
Construct: expressed in transfected cells; host or cells: NIH3T3 C7#3 (FLK-1/NIH3T3)
Sequence (P35918 20-1345): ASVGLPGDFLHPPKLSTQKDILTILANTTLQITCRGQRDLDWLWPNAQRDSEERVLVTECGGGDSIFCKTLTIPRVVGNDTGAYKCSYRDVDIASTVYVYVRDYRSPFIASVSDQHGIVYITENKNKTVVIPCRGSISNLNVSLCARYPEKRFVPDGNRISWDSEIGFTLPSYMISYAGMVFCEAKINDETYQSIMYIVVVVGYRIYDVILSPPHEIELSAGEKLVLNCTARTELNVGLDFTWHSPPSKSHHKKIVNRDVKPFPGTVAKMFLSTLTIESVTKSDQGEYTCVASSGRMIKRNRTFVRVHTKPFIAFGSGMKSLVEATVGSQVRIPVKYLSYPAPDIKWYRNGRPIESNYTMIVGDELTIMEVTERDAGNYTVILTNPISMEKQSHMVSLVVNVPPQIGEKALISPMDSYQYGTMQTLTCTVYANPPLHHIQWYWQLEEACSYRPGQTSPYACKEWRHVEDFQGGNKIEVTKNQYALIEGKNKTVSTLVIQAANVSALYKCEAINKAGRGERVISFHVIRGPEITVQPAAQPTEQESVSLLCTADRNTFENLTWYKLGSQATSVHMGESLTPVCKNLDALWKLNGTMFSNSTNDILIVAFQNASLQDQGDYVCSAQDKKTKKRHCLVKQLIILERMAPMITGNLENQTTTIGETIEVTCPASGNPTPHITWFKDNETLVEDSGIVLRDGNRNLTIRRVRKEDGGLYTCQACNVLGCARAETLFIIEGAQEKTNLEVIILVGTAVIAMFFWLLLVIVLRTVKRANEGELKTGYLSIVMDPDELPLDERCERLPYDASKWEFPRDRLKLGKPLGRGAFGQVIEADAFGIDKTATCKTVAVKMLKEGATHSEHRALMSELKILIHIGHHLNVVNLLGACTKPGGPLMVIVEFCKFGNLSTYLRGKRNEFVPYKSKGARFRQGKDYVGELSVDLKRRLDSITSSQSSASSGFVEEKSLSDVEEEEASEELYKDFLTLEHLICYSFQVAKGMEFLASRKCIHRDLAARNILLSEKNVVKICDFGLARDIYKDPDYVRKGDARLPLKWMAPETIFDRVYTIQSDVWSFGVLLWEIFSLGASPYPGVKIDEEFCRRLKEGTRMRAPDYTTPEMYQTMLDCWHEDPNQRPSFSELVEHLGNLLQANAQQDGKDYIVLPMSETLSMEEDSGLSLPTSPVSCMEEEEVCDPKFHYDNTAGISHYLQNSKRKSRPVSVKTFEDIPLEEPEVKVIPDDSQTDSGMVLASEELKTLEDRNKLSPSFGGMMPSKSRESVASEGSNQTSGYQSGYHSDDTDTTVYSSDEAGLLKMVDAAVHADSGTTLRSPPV
Experimental details: FLK-1 ELISA (catalytic activity of the FLK-1 receptor in FLK-1/NIH3T3 cells)
Format: cell-based
Particulars: Table 8
Reported endpoint: Activity EC200

{"Smi": "Cc1cc(C)c(/C=C2\\C(=O)Nc3ccc(C(=O)O)cc32)[nH]1", "Reported endpoint": "Activity EC200", "Measurement": "ActivityEC200 = 2.8 μm"}
{"Smi": "CCc1cc(CC)c(/C=C2\\C(=O)Nc3ccc(C(=O)O)cc32)[nH]1", "Reported endpoint": "Activity EC200", "Measurement": "ActivityEC200 = 2.8 μm"}
